ASSAY NAME: Acute toxicity in iv dosed mouse assessed as mortality
CONDITION DETAILS: in vivo
MEASURED QUANTITY: MTD (mg/kg)

COMPOUND: C/C=C1\NC(=O)[C@H](Cc2ccccc2)NC(=O)[C@@H](C(C)C)NC(=O)[C@@H]([C@H](C)CC)NC(=O)[C@H](NC(=O)[C@H](NC(=O)[C@H](CCCN)NC(=O)[C@H]2CCCN2C(=O)[C@H](NC(=O)[C@@H](NC(=O)[C@@H](NC(=O)[C@H](NC(=O)CCCC(C)C)C(C)C)[C@@H](C)O)C(C)C)C(C)C)[C@H](C)CC)[C@H](C)OC(=O)[C@H](C(C)C)NC1=O [KAHALALIDE F]
TEST RESULT: 0.28

====

System: Mycobacterium intracellulare
ASSAY NAME: Antimicrobial activity against Mycobacterium intracellular ATCC 23068 after 5 days by MABA assay
Format: functional, organism-based
CONDITION DETAILS: ATCC 23068, 120 h
Measured MIC values are reported for all entries that follow.
MEASURED QUANTITY: MIC

COMPOUND: C/C=C1\NC(=O)[C@H](Cc2ccccc2)NC(=O)[C@@H](C(C)C)NC(=O)[C@@H]([C@@H](C)CC)NC(=O)[C@H](NC(=O)[C@H](NC(=O)[C@H](CCCNCc2ccc(N3CCOCC3)cc2)NC(=O)[C@H]2CCCN2C(=O)[C@H](NC(=O)[C@@H](NC(=O)[C@@H](NC(=O)[C@H](NC(=O)CCCC(C)C)C(C)C)[C@@H](C)O)C(C)C)C(C)C)[C@@H](C)CC)[C@@H](C)OC(=O)[C@H](C(C)C)NC1=O
TARGET OF ASSAY: Mycobacterium intracellulare
TEST RESULT: > 20 µM
--
COMPOUND: C/C=C1\NC(=O)[C@H](Cc2ccccc2)NC(=O)[C@@H](C(C)C)NC(=O)[C@@H]([C@@H](C)CC)NC(=O)[C@H](NC(=O)[C@H](NC(=O)[C@H](CCCNCc2ccc(F)c(C)c2)NC(=O)[C@H]2CCCN2C(=O)[C@H](NC(=O)[C@@H](NC(=O)[C@@H](NC(=O)[C@H](NC(=O)CCCC(C)C)C(C)C)[C@@H](C)O)C(C)C)C(C)C)[C@@H](C)CC)[C@@H](C)OC(=O)[C@H](C(C)C)NC1=O
TARGET OF ASSAY: Mycobacterium intracellulare
TEST RESULT: > 20 µM
--
COMPOUND: C/C=C1\NC(=O)[C@H](Cc2ccccc2)NC(=O)[C@@H](C(C)C)NC(=O)[C@@H]([C@H](C)CC)NC(=O)[C@H](NC(=O)[C@H](NC(=O)[C@H](CCCN)NC(=O)[C@H]2CCCN2C(=O)[C@H](NC(=O)[C@@H](NC(=O)[C@@H](NC(=O)[C@H](NC(=O)CCCC(C)C)C(C)C)[C@@H](C)O)C(C)C)C(C)C)[C@H](C)CC)[C@H](C)OC(=O)[C@H](C(C)C)NC1=O [KAHALALIDE F]
TARGET OF ASSAY: Mycobacterium intracellulare
TEST RESULT: > 20 µM

====

System: Mycobacterium intracellulare
ASSAY NAME: Antimicrobial activity against Mycobacterium intracellular ATCC 23068 after 5 days by MABA assay
Format: functional, organism-based
CONDITION DETAILS: ATCC 23068, 120 h
MEASURED QUANTITY: MIC

COMPOUND SMILES: O=C(O)c1cn(C2CC2)c2cc(N3CCNCC3)c(F)cc2c1=O
TARGET OF ASSAY: Mycobacterium intracellulare
MEASURED QUANTITY: MIC
TEST RESULT: 1 µM

====

Measured GI50 values are reported for all entries that follow.
System: PC-3
ASSAY NAME: Cytotoxicity against human PC3 cells by sulforhodamine B assay
Format: functional
CONDITION DETAILS: read-out: GI50

COMPOUND: C/C=C1\NC(=O)[C@H](Cc2ccccc2)NC(=O)[C@@H](C(C)C)NC(=O)[C@@H]([C@@H](C)CC)NC(=O)[C@H](NC(=O)[C@H](NC(=O)[C@H](CCCNCc2ccc(F)c(C)c2)NC(=O)[C@H]2CCCN2C(=O)[C@H](NC(=O)[C@@H](NC(=O)[C@@H](NC(=O)[C@H](NC(=O)CCCC(C)C)C(C)C)[C@@H](C)O)C(C)C)C(C)C)[C@@H](C)CC)[C@@H](C)OC(=O)[C@H](C(C)C)NC1=O
GI50 / µM: 0.165
//
COMPOUND: C/C=C1\NC(=O)[C@H](Cc2ccccc2)NC(=O)[C@@H](C(C)C)NC(=O)[C@@H]([C@H](C)CC)NC(=O)[C@H](NC(=O)[C@H](NC(=O)[C@H](CCCN)NC(=O)[C@H]2CCCN2C(=O)[C@H](NC(=O)[C@@H](NC(=O)[C@@H](NC(=O)[C@H](NC(=O)CCCC(C)C)C(C)C)[C@@H](C)O)C(C)C)C(C)C)[C@H](C)CC)[C@H](C)OC(=O)[C@H](C(C)C)NC1=O [KAHALALIDE F]
GI50 / µM: 0.17
//
COMPOUND: CC(=O)O[C@H]1C(=O)[C@@]2(C)[C@H]([C@H](OC(=O)c3ccccc3)[C@]3(O)C[C@H](OC(=O)[C@H](O)[C@@H](NC(=O)c4ccccc4)c4ccccc4)C(C)=C1C3(C)C)[C@]1(OC(C)=O)CO[C@@H]1C[C@@H]2O
GI50 / µM: 0.004
//
COMPOUND: C/C=C1\NC(=O)[C@H](Cc2ccccc2)NC(=O)[C@@H](C(C)C)NC(=O)[C@@H]([C@@H](C)CC)NC(=O)[C@H](NC(=O)[C@H](NC(=O)[C@H](CCCNCc2ccc(N3CCOCC3)cc2)NC(=O)[C@H]2CCCN2C(=O)[C@H](NC(=O)[C@@H](NC(=O)[C@@H](NC(=O)[C@H](NC(=O)CCCC(C)C)C(C)C)[C@@H](C)O)C(C)C)C(C)C)[C@@H](C)CC)[C@@H](C)OC(=O)[C@H](C(C)C)NC1=O
GI50 / µM: 0.156
